TGT: α1β2γ2 recombinant GABAA receptor (Rattus norvegicus, UniProt P62813+P63138)
Sequence (P62813 28-455): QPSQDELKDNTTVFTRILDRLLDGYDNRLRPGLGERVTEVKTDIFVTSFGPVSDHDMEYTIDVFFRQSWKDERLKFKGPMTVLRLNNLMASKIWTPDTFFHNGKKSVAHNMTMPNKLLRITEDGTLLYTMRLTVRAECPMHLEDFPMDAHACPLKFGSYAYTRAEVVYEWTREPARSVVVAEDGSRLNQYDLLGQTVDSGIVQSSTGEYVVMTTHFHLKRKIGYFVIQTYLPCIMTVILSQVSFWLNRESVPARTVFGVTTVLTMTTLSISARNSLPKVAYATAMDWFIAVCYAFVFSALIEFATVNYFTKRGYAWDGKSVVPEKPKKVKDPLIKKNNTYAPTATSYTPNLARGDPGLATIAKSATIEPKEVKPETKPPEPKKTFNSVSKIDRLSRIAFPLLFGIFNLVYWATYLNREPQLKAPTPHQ
Sequence (P63138 26-474): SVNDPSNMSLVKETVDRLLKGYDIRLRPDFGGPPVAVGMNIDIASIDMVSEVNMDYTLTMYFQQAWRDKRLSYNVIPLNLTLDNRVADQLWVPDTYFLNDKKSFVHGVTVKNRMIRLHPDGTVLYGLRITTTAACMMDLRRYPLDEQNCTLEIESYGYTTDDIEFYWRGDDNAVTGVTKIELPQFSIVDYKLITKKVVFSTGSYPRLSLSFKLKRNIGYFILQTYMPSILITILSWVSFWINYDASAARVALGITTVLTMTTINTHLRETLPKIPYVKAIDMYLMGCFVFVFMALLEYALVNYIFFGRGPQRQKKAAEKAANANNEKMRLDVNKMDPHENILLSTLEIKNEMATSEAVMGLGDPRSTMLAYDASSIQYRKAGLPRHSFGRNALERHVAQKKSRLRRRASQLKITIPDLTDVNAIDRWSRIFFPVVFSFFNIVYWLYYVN
Sequence (P18508 39-466 partner): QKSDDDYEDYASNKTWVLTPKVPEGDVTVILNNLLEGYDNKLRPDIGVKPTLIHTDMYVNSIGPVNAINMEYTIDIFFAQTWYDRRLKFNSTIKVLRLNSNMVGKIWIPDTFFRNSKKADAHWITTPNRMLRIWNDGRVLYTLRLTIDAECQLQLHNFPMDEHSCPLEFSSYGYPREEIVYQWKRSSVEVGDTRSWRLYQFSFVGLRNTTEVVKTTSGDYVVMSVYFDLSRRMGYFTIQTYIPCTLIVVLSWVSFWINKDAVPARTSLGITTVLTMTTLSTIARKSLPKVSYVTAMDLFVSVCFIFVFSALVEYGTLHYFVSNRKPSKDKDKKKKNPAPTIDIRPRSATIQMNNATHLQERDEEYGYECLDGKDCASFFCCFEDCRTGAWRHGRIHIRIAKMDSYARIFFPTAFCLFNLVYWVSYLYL
METHOD SUMMARY: [^3H]muscimol binding kinetics, recombinant α1β2γ2 in HEK293 membranes
SETTINGS: α1β2γ2 in HEK293 membranes, 22°C, K D = koff/kon

>  <COMPOUND>
NCc1cc(=O)[nH]o1 [[^3H]muscimol] [[Methylene‐^3H]muscimol]

>  <Kd / nM>
1.6

$$$$

----------
TGT: forebrain membranes of δKO mice (non‐δ‐GABAARs)
METHOD SUMMARY: [^3H]muscimol binding kinetics, δKO forebrain membranes
Design: species or system mouse
SETTINGS: calculated from k on and k off, read-out: apparent [^3H]muscimol affinities (K D) for non‐δ‐GABAARs
pKd: −log10 of the molar value.
MEASUREMENT KIND: pKd

>  <MOLECULE>
NCc1cc(=O)[nH]o1 [[^3H]muscimol] [[Methylene‐^3H]muscimol]

>  <TGT>
forebrain membranes of δKO mice (non‐δ‐GABAARs)

>  <ASSAY RESULT>
~9.00

$$$$

----------
TGT: recombinant α4β3δ receptors (Homo sapiens, UniProt O14764+P28472+P48169)
Sequence (P48169 36-554): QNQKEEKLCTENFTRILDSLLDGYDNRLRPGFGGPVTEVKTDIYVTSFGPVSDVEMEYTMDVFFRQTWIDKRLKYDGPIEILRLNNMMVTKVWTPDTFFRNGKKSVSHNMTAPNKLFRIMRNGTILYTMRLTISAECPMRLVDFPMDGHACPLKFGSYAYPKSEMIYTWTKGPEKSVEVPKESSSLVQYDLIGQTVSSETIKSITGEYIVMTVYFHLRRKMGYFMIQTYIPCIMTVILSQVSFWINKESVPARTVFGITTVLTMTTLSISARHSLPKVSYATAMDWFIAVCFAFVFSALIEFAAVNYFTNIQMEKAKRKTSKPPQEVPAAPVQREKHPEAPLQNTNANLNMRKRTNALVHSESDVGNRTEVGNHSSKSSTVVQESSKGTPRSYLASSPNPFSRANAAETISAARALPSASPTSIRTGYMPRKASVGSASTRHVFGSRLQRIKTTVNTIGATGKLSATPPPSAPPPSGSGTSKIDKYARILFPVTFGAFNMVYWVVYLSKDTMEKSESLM
Sequence (P28472 26-473): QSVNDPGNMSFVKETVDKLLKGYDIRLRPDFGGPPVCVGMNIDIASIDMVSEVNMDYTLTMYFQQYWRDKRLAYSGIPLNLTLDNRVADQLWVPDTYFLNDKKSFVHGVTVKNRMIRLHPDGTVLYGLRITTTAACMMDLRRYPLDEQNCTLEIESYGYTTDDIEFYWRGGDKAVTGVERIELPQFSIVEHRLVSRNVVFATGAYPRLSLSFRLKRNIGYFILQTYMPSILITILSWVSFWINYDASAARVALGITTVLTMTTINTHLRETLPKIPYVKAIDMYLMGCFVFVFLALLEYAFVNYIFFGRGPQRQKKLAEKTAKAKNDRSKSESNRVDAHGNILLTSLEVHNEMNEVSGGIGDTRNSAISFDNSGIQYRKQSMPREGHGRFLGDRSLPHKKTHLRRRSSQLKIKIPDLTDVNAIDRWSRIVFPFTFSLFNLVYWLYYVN
Sequence (O14764 25-452): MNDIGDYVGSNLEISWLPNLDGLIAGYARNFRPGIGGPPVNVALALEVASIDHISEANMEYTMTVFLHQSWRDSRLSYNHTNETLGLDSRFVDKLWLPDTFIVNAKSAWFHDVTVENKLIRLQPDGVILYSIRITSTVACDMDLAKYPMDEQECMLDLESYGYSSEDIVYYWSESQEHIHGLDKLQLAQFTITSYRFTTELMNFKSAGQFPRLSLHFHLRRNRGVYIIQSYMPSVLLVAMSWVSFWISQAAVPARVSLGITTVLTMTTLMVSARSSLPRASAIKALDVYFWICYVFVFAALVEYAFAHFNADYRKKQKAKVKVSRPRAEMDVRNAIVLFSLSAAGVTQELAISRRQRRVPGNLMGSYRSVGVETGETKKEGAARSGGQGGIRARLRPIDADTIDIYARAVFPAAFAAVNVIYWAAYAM
METHOD SUMMARY: Muscimol currents, two electrode voltage clamp in Xenopus oocytes, α4β3δ
SETTINGS: α4β3δ in Xenopus oocytes, estimated/approximate; read-out: EC50 of the high‐muscimol affinity (slowly deactivating) current component
pEC50: −log10 of the molar value.

>  <SMILES>
NCc1cc(=O)[nH]o1

>  <TGT>
recombinant α4β3δ receptors (Homo sapiens, UniProt O14764+P28472+P48169)

>  <pEC50>
8.70 to 9.00

$$$$

----------
TGT: forebrain membranes of δKO mice (non‐δ‐GABAARs)
METHOD SUMMARY: [^3H]muscimol binding kinetics, δKO forebrain membranes
Design: species or system mouse
SETTINGS: forebrain membranes, 22°C, K D = koff/kon, read-out: K D

>  <COMPOUND>
NCc1cc(=O)[nH]o1 [[^3H]muscimol] [[Methylene‐^3H]muscimol]

>  <TGT>
forebrain membranes of δKO mice (non‐δ‐GABAARs)

>  <Kd>
1.1 nM

$$$$

----------
TGT: forebrain membranes of WT mice
METHOD SUMMARY: [^3H]muscimol binding kinetics, WT forebrain membranes
SETTINGS: 22°C, K D = koff/kon
pKd: −log10 of the molar value.

>  <COMPOUND>
NCc1cc(=O)[nH]o1 [[^3H]muscimol] [[Methylene‐^3H]muscimol]

>  <TGT>
forebrain membranes of WT mice

>  <pKd>
8.80

$$$$

----------
TGT: cerebellar membranes of WT mice
METHOD SUMMARY: [^3H]muscimol binding kinetics, WT cerebellar membranes
SETTINGS: 22°C, K D = koff/kon

>  <COMPOUND>
NCc1cc(=O)[nH]o1 [[^3H]muscimol] [[Methylene‐^3H]muscimol]

>  <Kd>
1.7 nM

$$$$

----------
TGT: α6β2γ2 recombinant GABAA receptor (Rattus norvegicus, UniProt P30191+P63138)
Sequence (P30191 20-453, one chain of several): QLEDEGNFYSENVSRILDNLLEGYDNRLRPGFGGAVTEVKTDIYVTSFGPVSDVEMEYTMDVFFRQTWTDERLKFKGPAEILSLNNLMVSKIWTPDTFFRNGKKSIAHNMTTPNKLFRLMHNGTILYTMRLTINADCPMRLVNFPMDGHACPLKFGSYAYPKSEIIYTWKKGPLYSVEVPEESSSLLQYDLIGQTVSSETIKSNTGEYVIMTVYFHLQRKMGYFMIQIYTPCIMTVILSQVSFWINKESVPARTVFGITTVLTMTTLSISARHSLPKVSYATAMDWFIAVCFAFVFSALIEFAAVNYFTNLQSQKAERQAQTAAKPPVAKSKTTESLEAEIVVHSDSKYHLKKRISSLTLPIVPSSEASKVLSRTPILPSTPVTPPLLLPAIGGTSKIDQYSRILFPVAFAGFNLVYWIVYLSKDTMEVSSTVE
METHOD SUMMARY: [^3H]muscimol binding kinetics, recombinant α6β2γ2 in HEK293 membranes
SETTINGS: 22°C, K D = koff/kon

>  <MOLECULE>
NCc1cc(=O)[nH]o1 [[^3H]muscimol] [[Methylene‐^3H]muscimol]

>  <TGT>
α6β2γ2 recombinant GABAA receptor (Rattus norvegicus, UniProt P30191+P63138)

>  <Kd / nM>
1.6

$$$$
